Molecular target: TNFα / TNFα receptor (TNFα R1/Fc) (Homo sapiens, UniProt P01375)
Construct: purchased R&D Systems
Sequence (P01375 77-233 limits assumed, species assumed): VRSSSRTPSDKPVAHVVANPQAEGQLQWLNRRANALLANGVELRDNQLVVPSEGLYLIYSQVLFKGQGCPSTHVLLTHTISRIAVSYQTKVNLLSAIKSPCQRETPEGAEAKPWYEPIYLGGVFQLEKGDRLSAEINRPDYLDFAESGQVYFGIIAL
Assay: Inhibition of binding of TNFα to the TNFα receptor (plate ELISA competition)
Settings: Table 2; read-out: Activity (IC50, inhibition of TNFα binding to TNFα R1/Fc)
Method: The compounds listed in Table 2 below were assayed for ability to inhibit binding of TNFα to the TNFα receptor (TNFα R1/Fc). The assays were performed as described in the following procedure: TNFα (R&D Systems) was coated on high binding plate wells (Corning 96-well) at a single uniform concentration of 15 nM, 100 μL/well in PBS. […] The TMB reaction was stopped with the addition of 0.5N HCl and then the plate was read for absorbance at 450 nm.
Numbered stars: 1 amine (or outer) side, 2 acyl side, 3 side chain; on linkers, the order of the positions; unused ones are H or OH. Bridge positions count the residues as written; N and C are the ends. Square brackets hold non-standard residues; d marks the D form. Peptide text beside a SMILES is read from it. Phe(4-CF3) = N[C@@H](Cc1ccc(C(F)(F)F)cc1)C(=O)O; Phe(4-COOH) = N[C@@H](Cc1ccc(C(=O)O)cc1)C(=O)O; Bip = N[C@@H](Cc1ccc(-c2ccccc2)cc1)C(=O)O; dPhe(4-NH2) = Nc1ccc(C[C@@H](N)C(=O)O)cc1; Phe(4-NH2) = Nc1ccc(C[C@H](N)C(=O)O)cc1; Ala(2-furyl) = N[C@@H](Cc1ccco1)C(=O)O; d1Nal = N[C@H](Cc1cccc2ccccc12)C(=O)O; d(hPhe) = N[C@H](CCc1ccccc1)C(=O)O; d2Thi = N[C@H](Cc1cccs1)C(=O)O; Suc = O=C(CCC(=O)[*:2])[*:1]; βAla = NCCC(=O)O
Please respond with reported IC50 for every item in the list.

Below: 10 compounds and their reported IC50.
compound	measured-endpoint	result
O=C1COc2ccc(cc2)C[C@@H](C(=O)NC2(C(=O)O)CC2)NC(=O)[C@H](CCc2ccccc2)NC(=O)[C@@H](Cc2ccc(-c3ccccc3)cc2)NC(=O)[C@H](Cc2cccs2)N1	IC50	< 10 µM
O=C1COc2ccc(cc2)C[C@@H](C(=O)NS(=O)(=O)c2ccccc2)NC(=O)[C@H](CCc2ccccc2)NC(=O)[C@@H](Cc2ccc(-c3ccccc3)cc2)NC(=O)[C@H](Cc2cccs2)N1	IC50	> 100 µM
O=C1COc2ccc(cc2)C[C@@H](C(=O)O)NC(=O)[C@H](Cc2ccccc2)NC(=O)[C@H](Cc2ccc(F)cc2)NC(=O)[C@H](Cc2cccs2)N1	IC50	< 10 µM
O=C1N[C@H](CCc2ccccc2)C(=O)N[C@@H](C(=O)O)Cc2ccc(cc2)NC(=O)[C@H](O)[C@@H](O)C(=O)N[C@H](Cc2ccccc2)C(=O)N[C@H]1Cc1ccc(Br)cc1	IC50	< 10 µM
N[C@H]1CC(=O)Nc2ccc(cc2)C[C@@H](C(=O)O)NC(=O)[C@@H](Cc2ccccc2)NC(=O)[C@H](Cc2ccc(-c3ccccc3)cc2)NC(=O)[C@@H](Cc2cccs2)NC1=O [Compound 371] (H-D[d2Thi][Bip][dF][Phe(4-NH2)]-OH; lactam 1-5)	IC50	> 100 µM
O=C1CCC(=O)N[C@H](Cc2cccc3ccccc23)C(=O)N[C@@H](Cc2ccc(C(F)(F)F)cc2)C(=O)N[C@H](Cc2ccccc2)C(=O)N[C@H](C(=O)O)Cc2ccc(cc2)N1 [Compound 142] ([d1Nal][Phe(4-CF3)][dF][Phe(4-NH2)]-OH; linker N-4 via Suc)	IC50	30 to 100 µM
O=C1CCC(=O)N[C@H](Cc2ccccc2)C(=O)N[C@@H](Cc2ccc(-c3ccccc3)cc2)C(=O)N[C@H](CCc2ccccc2)C(=O)N[C@H](C(=O)N[C@@H](Cc2ccccc2)C(=O)O)Cc2ccc(cc2)N1 [Compound 456] ([dF][Bip][d(hPhe)][Phe(4-NH2)]F-OH; linker N-4 via Suc)	IC50	> 100 µM
O=C1CCC(=O)N[C@H](CCc2ccccc2)C(=O)N[C@@H](Cc2ccc(C(F)(F)F)cc2)C(=O)N[C@@H](Cc2ccco2)C(=O)N[C@H](C(=O)O)Cc2ccc(cc2)N1 [Compound 224] ([d(hPhe)][Phe(4-CF3)][Ala(2-furyl)][Phe(4-NH2)]-OH; linker N-4 via Suc)	IC50	> 100 µM
O=C1CCC(=O)N[C@H](CCc2ccccc2)C(=O)N[C@@H](Cc2ccc(C(F)(F)F)cc2)C(=O)N[C@H](Cc2ccccc2)C(=O)N[C@@H](C(=O)N[C@@H](Cc2ccccc2)C(=O)O)Cc2ccc(cc2)N1 [Compound 12] ([d(hPhe)][Phe(4-CF3)][dF][dPhe(4-NH2)]F-OH; linker N-4 via Suc)	IC50	< 10 µM
O=C1CCC(=O)N[C@H](Cc2cccs2)C(=O)N[C@@H](Cc2ccc(-c3ccccc3)cc2)C(=O)N[C@@H](Cc2ccccc2)C(=O)N[C@@H](C(=O)O)Cc2ccc(cc2)N1 [Compound 497] ([d2Thi][Bip]F[dPhe(4-NH2)]-OH; linker N-4 via Suc)	IC50	> 100 µM

Batch request: IC50 for each of the following compounds.
1. O=C1COc2ccc(cc2)C[C@@H](C(=O)O)NC(=O)[C@H](Cc2c[nH]c3ccccc23)NC(=O)[C@@H](Cc2ccc(-c3ccccc3)cc2)NC(=O)[C@H](Cc2ccncc2)N1
2. O=C1COc2ccc(cc2)C[C@@H](C(=O)O)NC(=O)[C@H](Cc2ccc(-c3ccccc3)cc2)NC(=O)[C@@H](Cc2ccc(-c3ccccc3)cc2)NC(=O)[C@H](Cc2cccs2)N1
3. O=C(O)CCNC(=O)[C@@H]1Cc2ccc(cc2)C(=O)N[C@H](CCc2ccccc2)C(=O)N[C@@H](Cc2ccc(-c3ccccc3)cc2)C(=O)N[C@H](Cc2ccccc2)C(=O)N1 [Compound 424] ([d(hPhe)][Bip][dF][Phe(4-COOH)][βAla]-OH; lactam N-4)
4. O=C(O)CCCNC(=O)[C@H]1Cc2ccc(cc2)OCC(=O)N[C@@H](Cc2ccncc2)C(=O)N[C@H](Cc2ccc(-c3ccccc3)cc2)C(=O)N[C@@H](Cc2c[nH]c3ccccc23)C(=O)N1
5. O=C1COc2ccc(cc2)C[C@@H](C(=O)O)NC(=O)[C@H](CCc2ccccc2)NC(=O)[C@@H](Cc2ccc(-c3ccccc3)cc2)NC(=O)[C@H](Cc2ccc(O)cc2)N1
6. O=C1COc2ccc(cc2)C[C@@H](C(=O)O)NC(=O)[C@H](CCc2ccccc2)NC(=O)[C@@H](Cc2ccc(-c3ccccc3)cc2)NC(=O)[C@H](Cc2ccccc2C(F)(F)F)N1

< 10 µM
30 to 100 µM
< 10 µM
10 to 30 µM
< 10 µM
< 10 µM
